Biological target: T1, MERS-CoV (NCoV/Novel coronavirus) Spike Protein fragment (RBD, aa 367-606, His Tag) (Sino 40071-V08B1) (MERS-CoV, UniProt K9N5Q8 367-606)
T1 sequence: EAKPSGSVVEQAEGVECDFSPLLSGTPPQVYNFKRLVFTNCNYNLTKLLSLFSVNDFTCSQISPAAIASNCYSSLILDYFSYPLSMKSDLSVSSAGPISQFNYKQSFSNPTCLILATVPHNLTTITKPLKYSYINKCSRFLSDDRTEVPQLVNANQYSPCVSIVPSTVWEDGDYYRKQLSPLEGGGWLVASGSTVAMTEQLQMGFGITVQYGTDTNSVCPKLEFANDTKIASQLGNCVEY
Assay: Luminex bead assay, supernatant
Please assign -1 whenever Binding signal (MFI) is at or above 30 MFI, and 1 whenever it is below.

Take a look at these entries with their results.
mAb10913 (antibody, V domains shown) VH: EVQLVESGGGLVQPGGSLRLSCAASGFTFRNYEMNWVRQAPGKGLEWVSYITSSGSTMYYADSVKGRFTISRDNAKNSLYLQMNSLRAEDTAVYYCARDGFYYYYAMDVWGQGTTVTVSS VL: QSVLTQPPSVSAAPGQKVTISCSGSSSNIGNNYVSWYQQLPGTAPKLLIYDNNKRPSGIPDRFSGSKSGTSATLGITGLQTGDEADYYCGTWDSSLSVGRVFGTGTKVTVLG : -1
mAb10921 (antibody, V domains shown) VH: EVQLVESGGGLVQPGGSLRLSCAASGITVSSNYMSWVRQAPGKGLEWVSVIYSGGSTFYADSVKGRFTISRHNSKNTLYLQMNSLRAEDTAVYYCARERNFDAFDIWGQGTMVTVSS VL: DIQMTQSPSSVSASVGDRVTITCRASQGISSWLAWYQQKPGKAPKLLIYAASSLQSGVPSRFSGSGSGTDFTLTISSLQPEDFATYYCQQANSFPLFTFGPGTKVDIKR : 1
mAb10985 (antibody, V domains shown) VH: EVQLVESGGGLVQPGRSLRLSCAASGFTFDDYAMHWVRQAPGKGLEWVSGISWNRGSIGYADSVKGRFTISRDNAKNSLYLQMSSLRAEDTALYYCAKDGERWDSVVVPSARNGMDVWGQGTTVTVSS VL: QSVLTQPPSVSGAPGQRVTISCTGSSSNIGAGYDVHWYQQLPGTAPKLLIYGNSNRPSGVPDRFSGSKSGTSASLAITGLQAEDEADYYCQSYDSSLSGSYVFGTGTKVTVLG : -1

Enquiry: Decide: Binding signal (MFI) of mAb10920 (antibody, V domains shown) VH: QVQLVESGGGVVQPGRSLRLSCAASGFTFSYYGMHWVRQAPGKGLEWVAVIWYDGSNKFYADSVKGRFTISRDNSKNTLYLQMNSLRAEDTAVYYCAAARPGYYYGMDVWGQGTTVTVSS VL: DIQMTQSPSSLSASVGDRVTITCRASQGISNYLAWFQQKPGKAPNSLIYAASSLQRGVPSKFSGSGSGTDFTLTISSLQPEDFATYYCQQYNSYPRTFGQGTKVEIKR strictly below 30 MFI?
Return: -1

Enquiry: Here's an entry: mAb10938 (antibody, V domains shown) VH: EVQLVESGGGLVQPGGSLRLSCAVSGFTVSSNYMSWVRQAPGKGLEWVSLIYSGGSTFYADSVKGRFTISRHNSKNTLYLQMNSLRAEDTAVYYCAREGGYSYDYNYWGQGTLVTVSS VL: DIQMTQSPSSLSASVGDRVTITCQASQDIRNYLNWYQQKPGKAPKLLIYDASNLETGVPSRFSGIGSGTDFTFTISSLQPEDIATYYCQQYDNLPITFGQGTRLEIKR . Is its Binding signal (MFI) below 30 MFI?
Return: 1

Enquiry: Please check: Binding signal (MFI) for mAb10982 (antibody, V domains shown) VH: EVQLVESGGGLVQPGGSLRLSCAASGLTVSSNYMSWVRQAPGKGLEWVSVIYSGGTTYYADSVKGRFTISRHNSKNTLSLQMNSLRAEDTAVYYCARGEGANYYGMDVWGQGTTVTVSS VL: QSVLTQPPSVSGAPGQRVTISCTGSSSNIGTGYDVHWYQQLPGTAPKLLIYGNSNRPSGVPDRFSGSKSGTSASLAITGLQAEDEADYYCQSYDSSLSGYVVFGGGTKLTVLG , strictly under 30 MFI or not?
Return: 1

Enquiry: Please let me know if mAb10935 (antibody, V domains shown) VH: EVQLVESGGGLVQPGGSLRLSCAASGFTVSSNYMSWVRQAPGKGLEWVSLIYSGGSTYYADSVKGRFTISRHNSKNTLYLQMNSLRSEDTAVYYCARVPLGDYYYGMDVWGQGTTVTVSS VL: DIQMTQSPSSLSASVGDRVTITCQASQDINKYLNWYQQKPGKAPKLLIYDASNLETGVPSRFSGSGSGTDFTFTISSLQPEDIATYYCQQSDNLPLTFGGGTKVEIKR shows Binding signal (MFI) below 30 MFI.
Return: 1
